- Test system: RPMI-8226 leukemia
- measurementNotes: NCI-60 one-dose screen, 48 h
- statedConditions: 10 µM unless noted
- Description: Growth inhibition of the RPMI-8226 human tumor cell line is measured as a screen for anti-cancer activity. Cells are grown in 96 well plates and exposed to the test compound for 48 hours. Compounds are tested at a single concentration, which is 10^-5 M for most compounds. The reported endpoint is percent growth (GI% or GIPRCNT), where numbers from 0 - 100% represent growth inhibition, and numbers from -100% - 0 represent cell death. For example, a value of 40 represents 60% growth inhibition. […]
About 83,000 compounds went through this panel and 20% of them were active in at least one assay; those are over-represented in the sample as a whole. Activity calls are given as the source filed them. Rule for the calls: active = growth percent below 10; inactive = the rest.
Outcome codes: active, inactive

INSERT INTO assay_data (molecule, labelvalue) VALUES
  ('C1CCC(C(CC2CCCCN2)C2CCCCC2)CC1 (stereo not given)', 'active'),
  ('CCOC(=O)Nc1cc(-c2ccc(C)c(NS(C)(=O)=O)c2)nn2c(C)nnc12', 'active'),
  ('O=c1[nH]cc(Nc2cc(Cl)c3nonc3c2[N+](=O)[O-])c(=O)[nH]1', 'inactive'),
  ('CCCCCCCCCCNCCSS(=O)(=O)O', 'inactive'),
  ('COc1ccc(N2CCN(CC(=O)N3CCN(c4nnc(-c5ccccc5)c(-c5ccccc5)n4)CC3)CC2)cc1', 'active');

====

- Test system: A549/ATCC NSCLC
- measurementNotes: NCI-60 one-dose screen, 48 h
- statedConditions: 10 µM unless noted
About 83,000 compounds went through this panel and 20% of them were active in at least one assay; those are over-represented in the sample as a whole. The source made the active and inactive calls. The calls were made as follows: active = growth percent below 10; inactive = the rest.
Outcome codes: active, inactive

INSERT INTO measurements (molecule, testedon, labelvalue) VALUES
  ('N#CC(C#N)C(C#N)C#N', 'A549/ATCC NSCLC', 'inactive'),
  ('Nc1ccccc1-c1ccn[nH]1', 'A549/ATCC NSCLC', 'inactive'),
  ('COc1cccc(/C=N\NC(=O)c2ccncc2)c1O', 'A549/ATCC NSCLC', 'inactive'),
  ('CCC(=O)Nc1cc2c(cc1Cl)-c1ccccc1C2', 'A549/ATCC NSCLC', 'inactive'),
  ('COC(=O)[C@H](CCCCNC(=O)OCc1ccccc1)NC(=O)[C@@H](NC(=O)Nc1cc(C(F)(F)F)cc(C(F)(F)F)c1)C(C)C', 'A549/ATCC NSCLC', 'inactive'),
  ('O=C(CC(C(=O)c1ccccc1)N1CCN(Cc2ccccc2)CC1)c1ccccc1 (stereo not given)', 'A549/ATCC NSCLC', 'inactive'),
  ('COc1ccc(C2=NN(C(C)=O)C(c3cccc(Nc4ccnc5cc(Cl)ccc45)c3)C2)cc1 (stereo not given)', 'A549/ATCC NSCLC', 'inactive'),
  ('c1ccc(-c2nc(Nc3nccnn3)c3ccccc3n2)cc1', 'A549/ATCC NSCLC', 'inactive'),
  ('O=C(CC1Sc2ccccc2NC1=O)NNc1cccc(Cl)c1Cl (stereo not given)', 'A549/ATCC NSCLC', 'inactive'),
  ('COc1ccccc1NC(=O)c1sc2nc3c(cc2c1N)C(=O)CCC3', 'A549/ATCC NSCLC', 'inactive'),
  ('COc1cccc(CCN2C(=O)CCC3=C2CCC3=O)c1', 'A549/ATCC NSCLC', 'inactive'),
  ('CCOC(=O)OCC(=O)[C@@]1(O)CC[C@H]2[C@@H]3CCC4=CC(=O)CC[C@]4(C)[C@H]3[C@@H](O)C[C@@]21C', 'A549/ATCC NSCLC', 'inactive'),
  ('COc1cccc(C=Nc2cc(C(C)C)c(O)cc2C)c1O', 'A549/ATCC NSCLC', 'inactive'),
  ('COc1ccc(-c2c3c(N)nc(-c4ccncc4)nc3nc3c2c(C)nn3-c2ccccc2)cc1', 'A549/ATCC NSCLC', 'inactive'),
  ('COc1cc(/C=C/C(=O)C(C(=O)/C=C/c2ccc(OC(=O)CCNC34CC5CC(CC(C5)C3)C4)c(OC)c2)C(=O)CCNC23CC4CC(CC(C4)C2)C3)ccc1OC(=O)CCNC12CC3CC(CC(C3)C1)C2 (stereo not given)', 'A549/ATCC NSCLC', 'inactive'),
  ('COC(=O)C1(NC(=O)CNC(=O)OCc2ccccc2)CCCC1', 'A549/ATCC NSCLC', 'inactive'),
  ('FC(F)(F)c1ccc(-c2cnc(-c3nn[nH]n3)nc2NC2CCCCCC2)cc1', 'A549/ATCC NSCLC', 'inactive'),
  ('COCCOCCOCCOCCOc1ccc2c(c1)C(=O)c1nc3ncccc3c(=O)n1-2', 'A549/ATCC NSCLC', 'active'),
  ('COc1ccc(-c2ccc(O)c(C(=O)/C=C/c3cc(OC)c(OC)c(OC)c3)c2)cc1', 'A549/ATCC NSCLC', 'inactive'),
  ('N#Cc1c(NC(=O)c2ccco2)[n+]([O-])c2cc(Cl)c(Cl)cc2[n+]1[O-]', 'A549/ATCC NSCLC', 'inactive');

====

- Test system: K-562 leukemia
- measurementNotes: NCI-60 one-dose screen, 48 h
- statedConditions: 10 µM unless noted
About 83,000 compounds went through this panel and 20% of them were active in at least one assay; those are over-represented in the sample as a whole. Active and inactive are the calls of the source. How the source made its calls: active means growth percent below 10; inactive means the rest.
Outcome codes: 1 = active, -1 = inactive

INSERT INTO measurements (molecule, labelvalue) VALUES
  ('Oc1ccc(/C=N/Nc2nc3ccccc3s2)c(O)c1', -1),
  ('Nc1nc(Nc2ccccc2SSc2ccccc2Nc2nc(N)nc(-c3cccc(Cl)c3)n2)nc(-c2cccc(Cl)c2)n1', -1),
  ('COc1c(Br)cc(C(c2cc(Br)c(OC)c(Br)c2)c2ccccc2C(=O)O)cc1Br', -1),
  ('C=CCNC(=O)/C(=C/c1cccc([N+](=O)[O-])c1)NC(=O)c1ccccc1', -1),
  ('N#CC1c2ccccc2C=CN1C(=O)N(c1ccccc1)c1ccccc1 (stereo not given)', 1),
  ('CN(C)c1ncnc2c1ncn2C1CCCCO1 (stereo not given)', -1),
  ('O=C(O)C1CCN(S(=O)(=O)c2ccc(-c3ccccc3)cc2)CC1', -1),
  ('Cc1ccccc1NC(=O)NC(CC(N)=O)c1ccc2c(c1)nc(-c1cccc(Oc3ccc(C(C)(C)C)cc3)c1)n2CCCN1CCCCC1C (stereo not given)', 1),
  ('CSc1nc(N)c2c(n1)N(C)C=NS2(=O)=O', -1),
  ('CCCCCN(CCCCC)CCCNc1c2c(nc3ccc(Cl)cc13)CCCC2', -1),
  ('Cc1cc(C(=O)Nc2ccc3cc(CN4CCOCC4)ccc3n2)c(C)n1-c1ccccc1', -1),
  ('NS(=O)(=O)c1cc2c(cc1Cl)NC=NS2(=O)=O', -1),
  ('O=c1c2c(=NCCCN3CCCC3)cc3c(=O)n(CCCN4CCCC4)c(=O)c4c(NCCCN5CCCC5)cc(c(O)n1CCCN1CCCC1)c2c4-3', 1),
  ('CC(C)=CCNc1ncnc2c1ncn2C1OC(COP(=O)(O)O)C(O)C1O (stereo not given)', -1),
  ('OCCN1CCN(CCCN2c3ccccc3Sc3ccc(C(F)(F)F)cc32)CC1', 1),
  ('Nc1nc2c(nnn2Cc2ccc(Cl)c(Cl)c2)c(=O)[nH]1', -1),
  ('COc1ccc(NC(=O)[C@@H]2C[C@H]2c2ccccc2)c(C(N)=O)c1', -1),
  ('C[C@H](C(=O)N[C@@H](Cc1ccc(-c2ccccc2)cc1)C(=O)NC1CC(C)(C)NC(C)(C)C1)c1ccc(-c2ccccc2)c(F)c1', 1),
  ('CCN(CC)c1ccc(N=C2C=CC(=O)C=C2NC(C)=O)cc1', -1),
  ('COc1ccc(-c2cc(-c3cccnc3)nc3sc(C(=O)Nc4ccccc4)c(N)c23)cc1OC', -1);

====

- Tested on: KM12 colon
- measurementNotes: NCI-60 one-dose screen, 48 h (100 = growth as untreated, 0 = no growth, -100 = all killed)
- statedConditions: 10 µM unless noted
The panel holds about 83,000 compounds, 20% with a hit somewhere; the sample as a whole holds those more often. Active and inactive are the calls of the source. Rule for the calls: active = growth percent below 10; inactive = the rest.
Entries and their growth
quantityKind: growth

INSERT INTO measurements (compound, value) VALUES
  ('COc1ccc(NC(=O)c2ccc(-c3ccccc3)cc2)c(C(N)=O)c1', '99.2% (inactive)'),
  ('N#Cc1c(-c2ccccc2)cc(-c2ccccc2)n(CCCCC(=O)O)c1=O', '79.7% (inactive)'),
  ('CCOC(=O)C(C(=O)OCC)C1CCCCC1', '105% (inactive)'),
  ('CCOc1cc(/C=C/C(=O)C(C(=O)/C=C/c2ccc(OC(=O)CNc3nnc(C)s3)c(OCC)c2)C(=O)CNc2nnc(C)s2)ccc1OC(=O)CNc1nnc(C)s1', '-64.4% (active)'),
  ('COc1cc(/C=N/OC(=O)Nc2ccccc2)cc(OC)c1OC', '113% (inactive)'),
  ('N#CSCC1CC(O)(c2ccccc2)C(c2ccccc2)C(c2ccc(Cl)cc2)O1 (stereo unspecified)', '-96% (active)'),
  ('COc1cc(C2CC(C3C(=O)N(C)C(=O)N(C)C3=O)=NN2C=O)cc(OC)c1OC (stereo unspecified)', '102% (inactive)'),
  ('Nc1ccc2c(c1)C(=O)c1cc(Cl)c(Cl)cc1-2', '92.8% (inactive)'),
  ('O=C(Nc1nc2ccc(OC(F)(F)F)cc2s1)c1ccc(F)cc1', '2.23% (active)'),
  ('Nc1nc(Nc2ccccc2SSc2ccccc2Nc2nc(N)nc(-c3cccc(Cl)c3)n2)nc(-c2cccc(Cl)c2)n1', '77% (inactive)'),
  ('COc1ccccc1NC(=O)c1sc2nc3c(cc2c1N)C(=O)CCC3', '53.4% (inactive)'),
  ('C/C=C(/C(=C/C)c1ccc(O)cc1)c1ccc(O)cc1', '20.3% (inactive)'),
  ('O=C1N=C(N2CCOCC2)S/C1=C\c1cn(-c2ccccc2)nc1-c1ccccc1', '96.4% (inactive)'),
  ('CCOC(=O)C1=CCC(n2cc(C)c(=O)[nH]c2=O)O1 (stereo unspecified)', '96% (inactive)'),
  ('O=C1/C=C/[C@@H](O)[C@@H]2C[C@@H](O)C[C@H]2/C=C/CCC[C@H](CO)O1', '2.96% (active)'),
  ('COc1c(Br)cc(C(c2cc(Br)c(OC)c(Br)c2)c2ccccc2C(=O)O)cc1Br', '103% (inactive)'),
  ('Cn1ccnc1C(=O)/C=C/c1ccc(C(=O)Nc2nc3ccccc3[nH]2)cc1', '14.4% (inactive)'),
  ('CCN(CC)c1ccc(/C=C/C(=O)c2cccc(NS(C)(=O)=O)c2)cc1', '17.1% (inactive)'),
  ('CCCCN1c2nc3ccccc3cc2Sc2cc3ccccc3nc21', '68.3% (inactive)'),
  ('O=C(O)C1C(c2ccccc2)c2ccccc2C(O)C1CO (stereo unspecified)', '117% (inactive)'),
  ('CC(C)CNc1nc(N=[N+]=[N-])nc(NCC(C)C)n1', '53.6% [100 µM] (inactive)'),
  ('COC(=O)C1CCN(S(=O)(=O)c2ccc(-c3ccccc3)cc2)CC1', '102% (inactive)'),
  ('COc1cccc(-c2nc3cc(NC(=O)c4ccc(Cl)c(C#N)c4)ccc3o2)c1', '-51.8% (active)'),
  ('C#C[C@]1(O)CCC2C3CCc4cc(O)ccc4C3CC[C@@]21C (stereo partly specified)', '21.9% (inactive)'),
  ('C/C(=C\CCc1ccoc1)CC/C=C(\C)CCCC1COC(=O)C1 (stereo unspecified)', '93.3% (inactive)'),
  ('O=C(CNc1ccc2c(c1)C(=O)c1ccccc1C2=O)Nc1ccc2c(c1)C(=O)c1ccccc1C2=O', '-91.4% (active)'),
  ('N#Cc1c(-c2ccc(F)cc2)n2c(nc1=O)SC(=O)C2=O', '104% (inactive)'),
  ('c1ccc(-c2oc(-c3ccccc3)c3ccccc23)cc1', '105% (inactive)'),
  ('C[C@H]1c2cccc(O)c2C(O)=C2C(=O)[C@]3(O)C(O)=C(C(N)=O)C(=O)[C@@H](N(C)C)[C@@H]3[C@@H](O)[C@@H]21', '54.1% (inactive)'),
  ('C/C(=C\CCc1ccsc1)CC/C=C(\C)CCCN1CCSCC1', '84.3% (inactive)'),
  ('COc1ccc2cc(-c3nc4ccccc4[nH]3)c(=O)oc2c1', '93.8% (inactive)'),
  ('CC1c2ccccc2-c2ccccc2N1C (stereo unspecified)', '104% (inactive)'),
  ('O=C1NC(=O)/C(=C/c2ccc(Cl)cc2Cl)N1', '103% (inactive)'),
  ('Cc1ccc(-c2cc(-c3ccccc3)n(-c3ccccc3)n2)cc1', '106% (inactive)'),
  ('CCCCN=C(N)c1ccc(OCCSCCOc2ccc(C(N)=NCCCC)cc2)cc1', '27% (inactive)'),
  ('COc1ccc(/C=C/C(=O)c2cccc(NS(C)(=O)=O)c2)cc1', '38.5% (inactive)'),
  ('CC(=O)N1N=C(c2ccc3c(c2)OCO3)CC1c1c(C)nn(-c2ccccc2)c1N(C)Cc1ccccc1 (stereo unspecified)', '83.6% (inactive)'),
  ('COc1cc(/C=C/C(=O)C(C(=O)/C=C/c2ccc(OC(=O)CCNc3nnc(C)s3)c(OC)c2)C(=O)CCNc2nnc(C)s2)ccc1OC(=O)CCNc1nnc(C)s1', '-39.2% (active)'),
  ('Clc1ccc(C2=NN(c3ccc(Cl)cc3)C(c3cccc(Nc4ccnc5cc(Cl)ccc45)c3)C2)cc1 (stereo unspecified)', '85.2% (inactive)'),
  ('CC1=C([Se]CC(OC(=O)[C@@H](CSSC(C)(C)C)NC(=O)C(C)(C)C)C(=O)NCCCCCC(=O)OCc2ccccc2)C(=O)c2ccccc2C1=O (stereo partly specified)', '6.76% (active)'),
  ('O=C1CSC(c2ccccc2O)N1c1nnc(Cn2ccnc2)o1 (stereo unspecified)', '45.1% (inactive)');
